- Test system: A431 and Panc-1
- condition: number of cell deaths after 6 h of incubation
Starred links: 1 amine or outer side, 2 acyl side, 3 side chain; linkers in the order of their positions; H or OH if unused. Non-standard residues stand in square brackets, D forms with d. Residues, ends and D or L forms follow the SMILES beside them. ξ: configuration not given here. X1 = CC1(C)OC2[C@H](OC(C(O)C(=O)[*:2])[C@H]2N[*:1])O1; Bip = N[C@@H](Cc1ccc(-c2ccccc2)cc1)C(=O)O; ξF = NC(Cc1ccccc1)C(=O)O; ξK = NCCCCC(N)C(=O)O
readout-name: Necrosis

CC1(C)OC2[C@H](OC3C(O)C(=O)NC(Cc4ccccc4)C(=O)N[C@H](Cc4c[nH]c5ccccc45)C(=O)NC(CCCCN)C(=O)N[C@@H](Cc4ccc(-c5ccccc5)cc4)C(=O)N[C@H]32)O1 (stereo partly drawn) [SGnc 20, cyclo[-D-Trp-Lys-Thr(OTrt)-Z2-Phe-]] (cyclo([Bip][X1][ξF][dW][ξK])); some
C[C@@H](OC(c1ccccc1)(c1ccccc1)c1ccccc1)C1NC(=O)[C@H](CCCCN)NC(=O)[C@H](Cc2ccc3ccccc3c2)NC(=O)[C@H](Cc2ccc(O)cc2)NC(=O)[C@H]2O[C@@H]3OC(C)(C)OC3[C@@H]2NC1=O (some centres unmarked); some
